test: Caspase-3/7 induction in HepG2 cells by small molecules, qHTS cell viability counter screen (AID 1346981); conditions: CellTiter-Fluor fluorescence, 17 h; series mostly up to 92.4 µM; further: nearly all actives have a fitted effect of over 30% in size
Results filed as inconclusive are left out. Calls of active or inactive are those of the source. The call rests on the fitted dose curve; in most records, active means well fitted cell-killing curve with a large enough effect in the repeat runs; inconclusive means weak or mixed curves, or effect the other way; inactive means flat fitted curve, though single readings scatter.
Choose the fitting class; nothing outside active, inactive is accepted.

Qu. Assay outcome for `CCCCOCCOCCOCCO` : what was it?
Ans. inactive

Qu. Input `O=S(=O)(O)c1ccc(O)cc1`
Ans. inactive

Qu. Input C=C(C)C1CC=C(C)CC1 (configuration not stated)
Ans. inactive

Qu. Input `O=CCc1ccccc1`
Ans. inactive

Qu. Input `C[C@]12CC[C@H]3[C@@H](CCC4=CC(=O)CC[C@@]43C)[C@@H]1CC[C@@H]2C(=O)CO`
Ans. inactive

Qu. Input `COc1c(Cl)c(Cl)c(Cl)c(Cl)c1Cl`
Ans. inactive

Qu. Input `CNCCCC12CCC(c3ccccc31)c1ccccc12`
Ans. active

----------
assay: A CellTox Green Cytotoxicity Assay to monitor cytotoxicity in HEK293 cells - 24 hour (AID 1224875); conditions: CellTox Green fluorescence; series mostly up to 76.8 µM; further: nearly all actives have a fitted effect of over 45% in size
Records with an inconclusive call do not appear. The source made the active and inactive calls. Calls follow the shape of the dose curve; as a rule, active = well fitted activation curve with a large enough effect in the repeat runs; inconclusive = weak or mixed curves; inactive = flat fitted curve, though single readings scatter.
QUANTITY: outcome

Qu. Could you share which outcome value was measured for CCC(C)(O)CCCC(C)C (stereo unspecified) ?
Ans. inactive

Qu. Input `CCOCCOCCO`
Ans. inactive

Qu. Input `c1ccc2c(c1)c1cccc3ccc4cccc2c4c31`
Ans. inactive

Qu. Input `C[C@]12CCC(=O)C=C1CC[C@@H]1[C@@H]2C(=O)C[C@@]2(C)[C@H]1CC[C@]2(O)C(=O)CO`
Ans. inactive

Qu. Input `C[C@]12CC[C@H]3[C@@H](CCC4=CC(=O)CC[C@@]43C)[C@@H]1CC[C@@H]2C(=O)CO`
Ans. inactive

New cases:
Qu. Could you share which outcome value was measured for `CC(=O)CC/C=C(\C)CCC=C(C)C` ?
Ans. inactive

Qu. Input `O=C=Nc1ccc(Cc2ccc(N=C=O)cc2)cc1`
Ans. inactive

----------
experiment: A CellTox Green Cytotoxicity Assay to monitor cytotoxicity in HepG2 cells - 24 hour (AID 1224878); settings: CellTox Green fluorescence; series mostly up to 76.8 µM; further: nearly all actives have a fitted effect of over 45% in size; further: potency means the concentration at half of the fitted maximal effect
Results filed as inconclusive are left out. Active and inactive are the calls of the source. Calls come from the whole dose curve; as a rule, active = well fitted activation curve with a large enough effect in the repeat runs; inconclusive = weak or mixed curves; inactive = flat fitted curve, though single readings scatter.
QUANTITY: Potency

Reference set, count: 4
Qu. Could you share which Potency value was measured for `CCCCc1oc2ccccc2c1C(=O)c1cc(I)c(OCCN(CC)CC)c(I)c1` ?
Ans. 39.2 µM (active)

Qu. Input `CC(C)OB(OC(C)C)OC(C)C`
Ans. inactive

Qu. Input `CN(C)CCN(Cc1cccs1)c1ccccn1`
Ans. inactive

Qu. Input `CC(C)OC=O`
Ans. inactive

New cases:
Qu. Could you share which Potency value was measured for `CCCCNS(=O)(=O)c1ccccc1` ?
Ans. inactive

Qu. Input `S=C(NC1CCCCC1)NC1CCCCC1`
Ans. inactive

Qu. Input `Cc1ccc(C(=O)c2cc(O)c(O)c([N+](=O)[O-])c2)cc1`
Ans. inactive

Qu. Input `Cc1cccc([N+](=O)[O-])c1C`
Ans. inactive

Qu. Input `CC(C)=CCC/C(C)=C\CO`
Ans. inactive

Qu. Input `C[C@]12CCC(=O)C=C1CC[C@@H]1[C@@H]2C(=O)C[C@@]2(C)[C@H]1CC[C@]2(O)C(=O)CO`
Ans. inactive

----------
assay: Caspase-3/7 induction in CHO-K1 cells by small molecules, qHTS cell viability counter screen (AID 1346979); conditions: CellTiter-Fluor fluorescence, 17 h; series mostly up to 92.4 µM; further: nearly all actives have a fitted effect of over 35% in size
Inconclusive results are not listed. Active and inactive are the calls of the source. The call rests on the fitted dose curve; in most records, active means well fitted cell-killing curve with a large enough effect in the repeat runs; inconclusive means weak or mixed curves, or effect the other way; inactive means no such curve, though single readings can be large or run the other way.
Choose the fitting class; nothing outside Yes (active), No (inactive) is accepted.

Qu. Assay outcome for `Nc1ccc(Cl)cc1Cl` : what was it?
Ans. No

Qu. Input CC(C(=O)O)c1cccc(C(=O)c2ccccc2)c1 (stereo not given)
Ans. No

Qu. Input `C[C@]12CCC(=O)C=C1CC[C@@H]1[C@@H]2C(=O)C[C@@]2(C)[C@H]1CC[C@]2(O)C(=O)CO`
Ans. No

Qu. Input `CC(=O)c1ccccn1`
Ans. No

Qu. Input `CC(=O)CC/C=C(\C)CCC=C(C)C`
Ans. No

Qu. Input `CCCCCCCCCCCO`
Ans. No

Qu. Input `O=C(/C=C/c1ccccc1)OCc1ccccc1`
Ans. No

Qu. Input `c1ccc2cc(Nc3ccc(Nc4ccc5ccccc5c4)cc3)ccc2c1`
Ans. No

Qu. Input `Clc1nc(Cl)c(Cl)c(Cl)c1Cl`
Ans. No

Qu. Input `C[C@]12CC[C@H]3[C@@H](CCC4=CC(=O)CC[C@@]43C)[C@@H]1CC[C@@H]2C(=O)CO`
Ans. No

Qu. Input `O=Cc1ccccc1O`
Ans. No

Qu. Input `O=C(COc1ccc(Cl)cc1)N1CCN(Cc2ccc3c(c2)OCO3)CC1`
Ans. No

Qu. Input `O=C(O)c1ccccc1Nc1cccc(C(F)(F)F)c1`
Ans. No

Qu. Input `Cc1ncc[nH]1`
Ans. No

Qu. Input Cc1ccc2c(n1)Oc1ccc(C(C)C(=O)OCC(=O)N(C)C)cc1C2 (stereo not given)
Ans. No

Qu. Input CC(C)=CCCC(C)CCO (stereo not given)
Ans. No

Qu. Input `Cn1cnc([N+](=O)[O-])c1Sc1ncnc2nc[nH]c12`
Ans. Yes

Qu. Input `CC(C)=CCC/C(C)=C\CO`
Ans. No

Qu. Input `c1ccncc1`
Ans. No

Qu. Input `O=C1c2cccc(O)c2C(=O)c2c(O)cccc21`
Ans. No

Qu. Input `O=CCCCC=O`
Ans. No

Qu. Input `CN(C)CCN(Cc1cccs1)c1ccccn1`
Ans. No

Qu. Input `Brc1cc(Oc2cc(Br)c(Br)c(Br)c2Br)c(Br)c(Br)c1Br`
Ans. No

Qu. Input `Nc1ccc(S(=O)(=O)Nc2cnc3ccccc3n2)cc1`
Ans. No

Qu. Input `COc1ccc(C(=O)CC(=O)c2ccc(C(C)(C)C)cc2)cc1`
Ans. No

----------
experiment: qHTS assay to identify small molecule phospholipidosis (PLD) inducers (AID 1259344); conditions: HepG2 phospholipidosis, LipidTOX Red imaging, 24 h; series mostly up to 38.3 µM
Records with an inconclusive call do not appear. Active and inactive are the calls of the source. Calls follow the shape of the dose curve; as a rule, active = well fitted activation curve with a large enough effect; inconclusive = small, poorly fitted or top-dose-only effect; inactive = flat fitted curve, though single readings scatter.
Choose the fitting class; nothing outside active, inactive is accepted.

Qu. Assay outcome for `CN(C)C(=N)N=C(N)N` : what was it?
Ans. inactive

Qu. Input `O=C(c1ccc(OCCN2CCCCC2)cc1)c1c(-c2ccc(O)cc2)sc2cc(O)ccc12`
Ans. inactive

Qu. Input `O=C(O)c1ccccc1Nc1cccc(C(F)(F)F)c1`
Ans. inactive

Qu. Input `CC(C)Oc1ccc2c(=O)c(-c3ccccc3)coc2c1`
Ans. inactive

Qu. Input COc1ccc(OC)c(C(O)CNC(=O)CN)c1 (stereo unspecified)
Ans. inactive

Qu. Input `O=C(Nc1ccc([N+](=O)[O-])cc1Cl)c1cc(Cl)ccc1O`
Ans. inactive

Qu. Input Cc1ccc2c(n1)Oc1ccc(C(C)C(=O)OCC(=O)N(C)C)cc1C2 (stereo unspecified)
Ans. inactive

Qu. Input `O=C1c2cccc(O)c2C(=O)c2c(O)cccc21`
Ans. inactive

Qu. Input CC1=CCC(C(C)(C)O)CC1 (stereo unspecified)
Ans. inactive

Qu. Input `CNCCCC12CCC(c3ccccc31)c1ccccc12`
Ans. active

Qu. Input `Cc1ncc[nH]1`
Ans. inactive

Qu. Input `C#C[C@]1(O)CC[C@H]2[C@@H]3CCC4=Cc5oncc5C[C@]4(C)[C@H]3CC[C@@]21C`
Ans. inactive

Qu. Input `OC[C@H]1O[C@@H]2O[C@H]3[C@H](O)[C@@H](O)[C@@H](O[C@H]4[C@H](O)[C@@H](O)[C@@H](O[C@H]5[C@H](O)[C@@H](O)[C@@H](O[C@H]6[C@H](O)[C@@H](O)[C@@H](O[C@H]7[C@H](O)[C@@H](O)[C@@H](O[C@H]8[C@H](O)[C@@H](O)[C@@H](O[C@H]1[C@H](O)[C@H]2O)O[C@@H]8CO)O[C@@H]7CO)O[C@@H]6CO)O[C@@H]5CO)O[C@@H]4CO)O[C@@H]3CO`
Ans. inactive

Qu. Input `O=P(O)(O)O`
Ans. inactive

Qu. Input `Cc1cccc(N(C)C(=S)Oc2ccc3ccccc3c2)c1`
Ans. inactive

Qu. Input `C#C[C@]1(O)CC[C@H]2[C@@H]3CCc4cc(OC)ccc4[C@H]3CC[C@@]21C`
Ans. inactive

Qu. Input `CC(=O)Oc1ccccc1C(=O)Nc1ncc([N+](=O)[O-])s1`
Ans. inactive

Qu. Input `O=S(=O)(O)c1ccc(O)cc1`
Ans. inactive

Qu. Input `Cc1[nH]c(=O)c(C#N)cc1-c1ccncc1`
Ans. inactive

Qu. Input Cc1c(OCC(F)(F)F)ccnc1CS(=O)c1nc2ccccc2[nH]1 (stereo unspecified)
Ans. inactive

Qu. Input `O=CCCCC=O`
Ans. inactive
